target: PTPN11-E76K mutant enzyme (Homo sapiens (Human), UniProt Q06124, E76K); assay: PTPN11 Enzymatic Assay (DiFMUP phosphatase activity); format: biochemical; settings: full length PTPN11-E76K mutant enzyme 250 pM, DiFMUP 50 μM, 30 min preincubation; read-out: PTPN11-E76K Avg IC50
Sequence (Q06124 whole entry E76K): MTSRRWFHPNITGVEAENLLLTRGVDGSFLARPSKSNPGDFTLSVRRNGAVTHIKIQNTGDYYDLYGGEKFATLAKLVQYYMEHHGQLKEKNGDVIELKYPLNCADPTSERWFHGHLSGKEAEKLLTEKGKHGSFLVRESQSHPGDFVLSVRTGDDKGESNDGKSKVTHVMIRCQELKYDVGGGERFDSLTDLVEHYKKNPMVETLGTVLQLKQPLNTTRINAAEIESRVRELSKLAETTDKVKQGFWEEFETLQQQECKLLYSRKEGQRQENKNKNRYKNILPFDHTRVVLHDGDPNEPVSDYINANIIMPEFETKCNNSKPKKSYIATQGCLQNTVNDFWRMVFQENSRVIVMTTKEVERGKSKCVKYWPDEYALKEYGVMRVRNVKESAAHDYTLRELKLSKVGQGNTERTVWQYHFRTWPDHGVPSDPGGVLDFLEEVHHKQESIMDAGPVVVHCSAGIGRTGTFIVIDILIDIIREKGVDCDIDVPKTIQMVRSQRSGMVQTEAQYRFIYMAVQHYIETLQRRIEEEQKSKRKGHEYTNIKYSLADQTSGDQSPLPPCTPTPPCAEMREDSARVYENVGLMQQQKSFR
Structures can show the parent of a compound that is named as a salt.
Measured endpoint: IC50 (µM)

# Compound, Unit, Test result
records = [
    ("CC1(CN)CCN(c2cnc3c(-c4cn[nH]c4C(F)(F)F)n[nH]c3n2)CC1", "µM", 2.6),
    ("CC1(CN)CCN(c2cnc3c(-c4ccccc4Cl)n[nH]c3n2)CC1", "µM", 0.178),
    ("NCC1(O)CCN(c2cnc3c(-c4ccnc(O)c4Cl)n[nH]c3n2)CC1", "µM", 5.37),
    ("CC1(CN)CCN(c2cnc3c(-c4cccc(C(F)(F)F)c4)n[nH]c3n2)CC1", "µM", 1.75),
    ("COc1cccc(-c2n[nH]c3nc(N4CCC5(CCC[C@H]5N)CC4)cnc23)c1Cl", "µM", 0.039),
    ("COc1cc(Cl)cc(-c2n[nH]c3nc(N4CCC5(CCC[C@H]5N)CC4)cnc23)c1", "µM", 0.313),
    ("N[C@@H]1CCCC12CCN(c1cnc3c(-c4cccc(Cl)c4)n[nH]c3n1)CC2", "µM", 0.429),
    ("N[C@@H]1CCCC12CCN(c1cnc3c(-c4ccnc(O)c4Cl)n[nH]c3n1)CC2 [Example 108, trifluoroacetate]", "µM", 0.726),
    ("N[C@@H]1CCCC12CCN(c1cnc3c(-c4ccc(Cl)cc4)n[nH]c3n1)CC2", "µM", 0.118),
    ("Nc1nccc(-c2n[nH]c3nc(N4CCC5(CC4)COC[C@H]5N)cnc23)c1Cl", "µM", 0.132),
    ("CNc1nccc(-c2n[nH]c3nc(N4CCC5(CCC[C@H]5N)CC4)cnc23)c1Cl", "µM", 0.043),
    ("CC1(N)CCN(c2cnc3c(-c4ccnc(O)c4Cl)n[nH]c3n2)CC1", "µM", 1.94),
    ("CC1(CN)CCN(c2cnc3c(-c4ccc(Cl)cc4)n[nH]c3n2)CC1", "µM", 0.169),
    ("CC1(N)CCN(c2cnc3c(-c4cc(Cl)cc(Cl)c4)n[nH]c3n2)CC1", "µM", 0.404),
    ("CC1(N)CCN(c2cnc3c(-c4ccc(Cl)c(Cl)c4)n[nH]c3n2)CC1", "µM", 0.141),
    ("CC1(N)CCN(c2cnc3c(-c4cc(N)ncc4Cl)n[nH]c3n2)CC1", "µM", 0.587),
    ("NCC1(O)CCN(c2cnc3c(-c4ccnc(N)c4Cl)n[nH]c3n2)CC1", "µM", 0.779),
]
